# Test system: Wild type
# Method Summary: S. aureus survival, RN4220 and DeltatarO strains – OD600, teichoic acid synthesis inhibitors, primary screen (AID 463173)
# Condition Details: S. aureus RN4220 wild type/DeltatarO growth, OD600, 18 h, hits give low values, screened at 18.75 µg/mL (by protocol)
Screen size: about 52,000 compounds; about 1,700 (3.3%) were called active. Only a selection was taken, and actives are over-represented in it overall.
API: label(entry) gives yes if the entry's survival is strictly smaller than 70%; on equality or larger values it gives no.

Molecule: COc1ccc(-c2nnn3c2nc(N2CCCC(C)C2)c2ccccc23)cc1 (configuration not stated)
Target Under Test: Wild type
Qualitative Label: yes
//
Molecule: Clc1ccc(-c2nnn3c2nc(N2CCCCC2)c2ccccc23)cc1
Target Under Test: Wild type
Qualitative Label: yes
//
Molecule: COc1ccc(N2CCN(CCCNC(=O)c3cnn(-c4ccc(F)cc4)c3-n3cccc3)CC2)cc1
Target Under Test: Wild type
Qualitative Label: no
//
Molecule: COc1ccc(NC(=O)CSc2nc3ccccc3nc2N2CCCCC2)cc1
Target Under Test: Wild type
Qualitative Label: yes
//
Molecule: CCn1c(=O)c2cc(C(=O)N(CCCOC(C)C)Cc3ccco3)sc2c2ccccc21
Target Under Test: Wild type
Qualitative Label: yes
//
Molecule: Cc1ccc2[nH]cc(C(c3ccccc3)c3ccc(Cl)s3)c2c1 (configuration not stated)
Target Under Test: Wild type
Qualitative Label: yes
//
Molecule: COc1cccc(Cc2nc3ccccc3nc2SCC(=O)Nc2cc(OC)ccc2OC)c1
Target Under Test: Wild type
Qualitative Label: yes
//
Molecule: CCOC(=O)Cn1c(=O)n(CC2CCCO2)c2nc(-c3ccc(C(C)C)cc3)nc(C(N)=O)c21 (configuration not stated)
Target Under Test: Wild type
Qualitative Label: yes
//
Molecule: CC(=O)Nc1ccc(NC(=O)CSc2nc3ccccc3nc2N2CCCCC2)cc1
Target Under Test: Wild type
Qualitative Label: no
//
Molecule: CCOc1ccc(C(=O)c2cn(Cc3ccccc3OC)c3cc4c(cc3c2=O)OCCO4)cc1
Target Under Test: Wild type
Qualitative Label: no
//
Molecule: O=C(CSc1nc2c([nH]c3ccccc32)c(=O)n1-c1ccc(F)cc1)NCc1ccc(F)cc1
Target Under Test: Wild type
Qualitative Label: no
//
Molecule: CCOc1ccccc1N1CC(c2nc3ccccc3n2CCCOc2ccccc2)CC1=O (configuration not stated)
Target Under Test: Wild type
Qualitative Label: yes
//
Molecule: CCOC(=O)Cn1c(=O)n(CC2CCCO2)c2nc(-c3ccccc3)nc(C(N)=O)c21 (configuration not stated)
Target Under Test: Wild type
Qualitative Label: yes
//
Molecule: CCOC(=O)Cn1c(=O)n(CC2CCCO2)c2nc(-c3ccc(OCC)cc3)nc(C(N)=O)c21 (configuration not stated)
Target Under Test: Wild type
Qualitative Label: yes
//
Molecule: CC1CCCN(c2nc3c(-c4ccc(Cl)cc4)nnn3c3ccccc23)C1 (configuration not stated)
Target Under Test: Wild type
Qualitative Label: no
//
Molecule: Cc1ccc(-c2nnn3c2nc(N2CCC(C)CC2)c2ccccc23)cc1
Target Under Test: Wild type
Qualitative Label: yes
//
Molecule: COc1ccc(NC(=O)CSc2nc3ccccc3nc2N2CCC(C)CC2)cc1
Target Under Test: Wild type
Qualitative Label: yes
//
Molecule: Fc1ccc(-n2ncc3c(NC4CCCCCC4)ncnc32)cc1
Target Under Test: Wild type
Qualitative Label: no
//
Molecule: COc1ccc(CCNC(=O)CSc2nc3ccccc3nc2Cc2ccc(C)cc2)cc1OC
Target Under Test: Wild type
Qualitative Label: yes
//
Molecule: COc1cccc(NC(=O)CSc2nc3ccccc3nc2N2CCOCC2)c1
Target Under Test: Wild type
Qualitative Label: yes
//
Molecule: COc1ccc(CCNC(=O)CSc2nc3ccccc3nc2Cc2ccc(Cl)cc2)cc1OC
Target Under Test: Wild type
Qualitative Label: yes
//
Molecule: CCOC(=O)Cn1c(=O)n(-c2ccccc2OC)c2nc(-c3cccc(F)c3)nc(C(N)=O)c21
Target Under Test: Wild type
Qualitative Label: yes
//
Molecule: CCOC(=O)Cn1c(=O)n(CC2CCCO2)c2nc(-c3ccc(CC)cc3)nc(C(N)=O)c21 (configuration not stated)
Target Under Test: Wild type
Qualitative Label: no
//
Molecule: Cc1ccc(S(=O)(=O)C(CNC(=O)c2ccc(C(F)(F)F)cc2)c2ccco2)cc1 (configuration not stated)
Target Under Test: Wild type
Qualitative Label: no
//
Molecule: NC(=O)CSc1nnc(COc2ccccc2)n1C1CCCCC1
Target Under Test: Wild type
Qualitative Label: no
//
Molecule: CCc1ccccc1N1CC(c2nc3ccccc3n2CCOc2ccc(Cl)c(C)c2)CC1=O (configuration not stated)
Target Under Test: Wild type
Qualitative Label: yes
//
Molecule: COc1ccc(NC(=O)CSc2nc3ccccc3nc2N2CCOCC2)c(OC)c1
Target Under Test: Wild type
Qualitative Label: yes
//
Molecule: CCc1nn2c(=O)c(S(=O)(=O)Nc3ccc(Br)cc3F)c(C)nc2s1
Target Under Test: Wild type
Qualitative Label: yes
//
Molecule: Cc1cc(C)cc(OCCn2c(C3CC(=O)N(c4ccccc4Cl)C3)nc3ccccc32)c1 (configuration not stated)
Target Under Test: Wild type
Qualitative Label: no

----------
# Test system: Wild type
# Method Summary: S. aureus survival, RN4220 and DeltatarO strains – OD600, teichoic acid synthesis inhibitors, primary screen (AID 463173)
# Condition Details: S. aureus RN4220 wild type/DeltatarO growth, OD600, 18 h, hits give low values, screened at 18.75 µg/mL (by protocol)
The whole screen tested about 52,000 compounds, of which about 1,700 (3.3%) were called active. What follows is part of a selection rich in actives, with near analogues and random picks from the rest.
// NB: equality with 80% counts as class 0; only survival strictly below is class 1

Compound: O=C(NC1CCCC1)C(c1ccccc1)N(C(=O)c1ccco1)C1CCCC1 (configuration not stated)
Qualitative Label: class 0

Compound: Cc1cccc(N2CCN(C(=O)C3CCN(Cc4nc(-c5ccc(Cl)cc5)oc4C)CC3)CC2)c1C
Qualitative Label: class 1

Compound: COc1ccccc1NC(=O)CN(c1ccc(C(C)C)cc1)S(=O)(=O)c1c(C)noc1C
Qualitative Label: class 0

Compound: COC(=O)c1c(NC(=O)c2c(OC)cccc2OC)sc2c1CCCC2
Qualitative Label: class 1

Compound: CCc1ccc(-c2nc(CN3CCCC(C(=O)N4CCN(c5cc(Cl)ccc5C)CC4)C3)c(C)o2)cc1 (configuration not stated)
Qualitative Label: class 0

Compound: COC(=O)c1c(NC(=O)COc2cccc(C(F)(F)F)c2)sc2c1CCCC2
Qualitative Label: class 1

----------
The reader will find reported survival values listed item by item below.
# Test system: Wild type
# Method Summary: S. aureus survival, RN4220 and DeltatarO strains – OD600, teichoic acid synthesis inhibitors, primary screen (AID 463173)
# Condition Details: S. aureus RN4220 wild type/DeltatarO growth, OD600, 18 h, hits give low values, screened at 18.75 µg/mL (by protocol)
Among all 52,000 compounds or so, about 1,700 (3.3%) were called active. The sample holds actives, similar compounds and a random draw of the others, so the mix is not that of the screen.

Compound: Fc1ccccc1Nc1c2c(nc3ccccc13)CCC2
Target Under Test: Wild type
survival / %: 102

Compound: COc1ccc(Nc2c3c(nc4ccccc24)CCC3)cc1Cl
Target Under Test: Wild type
survival / %: 72

Compound: COc1cccc(-c2ccc(-c3noc(-c4ccccc4Br)n3)c(OC)n2)c1
Target Under Test: Wild type
survival / %: 37

Compound: COc1ccc(CN2C(=O)N(c3cccc(C)c3)C(=O)C2CC(=O)Nc2ccc(F)cc2)cc1OC (centres undefined)
Target Under Test: Wild type
survival / %: 73

Compound: Nc1ncc(S(=O)(=O)Nc2ccc(OC(F)(F)F)cc2)cn1
Target Under Test: Wild type
survival / %: 63

Compound: CCn1c(O)c(C=Nc2cccc(O)c2)sc1=S
Target Under Test: Wild type
survival / %: 115

Compound: CCCOCc1cc(CN2CCN(c3ccccc3OC)CC2)c(O)c2ncccc12
Target Under Test: Wild type
survival / %: 99

Compound: CCOC(=O)C1CCN(S(=O)(=O)c2cc(-c3onc(C)c3C)ccc2C)CC1
Target Under Test: Wild type
survival / %: 81

Compound: COc1ccc(OCC(=O)NCCO)cc1
Target Under Test: Wild type
survival / %: 116

Compound: CCOc1ccc(NC(=O)c2sc3nc4c(c(-c5ccc(OC)cc5)c3c2N)C(=O)CC(C)(C)C4)cc1
Target Under Test: Wild type
survival / %: 69

Compound: COc1ccc(-c2cc(C(F)(F)F)nc(SCC(=O)NCc3ccc(Cl)cc3)n2)cc1
Target Under Test: Wild type
survival / %: 83

Compound: COc1nc(C)ccc1-c1noc(-c2ccccc2)n1
Target Under Test: Wild type
survival / %: 100

Compound: Cc1cccc(NC(=O)c2oc3ccccc3c2NC(=O)c2cc(=O)c3cc(Cl)ccc3o2)c1
Target Under Test: Wild type
survival / %: 85

Compound: Cc1c(C(=O)Nc2cccc(C(F)(F)F)c2)sc2nc[nH]c(=O)c12
Target Under Test: Wild type
survival / %: 73

Compound: FC(F)(F)c1cccc(Nc2c3c(nc4ccc(Cl)cc24)CCC3)c1
Target Under Test: Wild type
survival / %: 5

Compound: C/C(=N/OCC(=O)Nc1sc2c(c1C#N)CCCC2)c1cccs1
Target Under Test: Wild type
survival / %: 111

Compound: COc1ccc(-c2cc(C(F)(F)F)nc(S(C)(=O)=O)n2)cc1
Target Under Test: Wild type
survival / %: 98

Compound: CCCn1cc(S(=O)(=O)c2ccc(OC)cc2)c(=O)c2cc(F)c(N3CCCC(C)C3)cc21 (centres undefined)
Target Under Test: Wild type
survival / %: 71

Compound: CCOC(=O)NNC(=O)C1CCC(C)CC1 (centres undefined)
Target Under Test: Wild type
survival / %: 64

Compound: CCCCN(CC)C(=O)Cn1ncc2c3ccccc3n(CCC)c2c1=O
Target Under Test: Wild type
survival / %: 98

Compound: COc1cccc(/C=N/n2c(N)nc3ccccc32)c1OC
Target Under Test: Wild type
survival / %: 103

Compound: COc1ccccc1Nc1c2c(nc3ccc(NC(=O)c4cccc(F)c4)cc13)CCCC2
Target Under Test: Wild type
survival / %: 35

Compound: COc1ccccc1/C=C/c1nc2ccccc2n1C(C)C
Target Under Test: Wild type
survival / %: 2

Compound: COc1ccc(CNC(=O)c2cccc(NC(=O)N3CCSc4ncccc43)c2)cc1
Target Under Test: Wild type
survival / %: 67

Compound: CC(=O)Nc1cccc(NC(=O)CSc2ccc(-c3sc(-c4ccccc4)nc3C)nn2)c1
Target Under Test: Wild type
survival / %: 17

Compound: Cc1cccc(NC(=O)Cn2nnc(C(=O)NCc3cccs3)c2N)c1
Target Under Test: Wild type
survival / %: 89

Compound: COc1nc(-c2ccc(C)cc2)ccc1-c1noc(-c2ccccc2Br)n1
Target Under Test: Wild type
survival / %: 2

Compound: Cc1nc(-c2ccccc2)sc1-c1ccc(SCC(=O)Nc2ccccc2)nn1
Target Under Test: Wild type
survival / %: 41

Compound: COc1ccc(-c2ccc(-c3noc(-c4cc(OC)cc(OC)c4)n3)c(OC)n2)cc1
Target Under Test: Wild type
survival / %: 49

Compound: Fc1cccc(NCc2cccn2-c2nnc(N3CCOCC3)s2)c1
Target Under Test: Wild type
survival / %: 77

Compound: N#C/C(=C\c1ccc(-c2ccccc2C(=O)O)o1)c1nc2ccccc2[nH]1
Target Under Test: Wild type
survival / %: 84

Compound: Cc1cccc(-n2ccnc2SCC(=O)Nc2ccc(F)cc2F)c1C
Target Under Test: Wild type
survival / %: 71

Compound: CCOC(=O)c1cccc(Nc2c3c(nc4ccccc24)CCC3)c1
Target Under Test: Wild type
survival / %: 73

Compound: COc1nc(-c2ccccc2)ccc1-c1noc(-c2ccccc2Br)n1
Target Under Test: Wild type
survival / %: -2

Compound: O=C(O)/C(=C/C(=O)c1ccccc1)Nc1ccccc1
Target Under Test: Wild type
survival / %: 100

Compound: CCOC(=O)CC(NC(=O)c1cc2c(=O)n3cccc(C)c3nc2s1)c1ccc(OCC(C)C)c(OC)c1 (centres undefined)
Target Under Test: Wild type
survival / %: 77

Compound: CCOC(=O)c1ccn(-c2nc(-c3cccc(OC)c3)cc(C(F)(F)F)n2)n1
Target Under Test: Wild type
survival / %: 48

Compound: CCCC(=O)n1nc(-c2cccnc2)nc1NCc1ccc(OC)cc1
Target Under Test: Wild type
survival / %: 86

Compound: CCCNC(=O)Cn1nc(-c2ccc(OC)cc2)c2cnc3ccc(F)cc3c21
Target Under Test: Wild type
survival / %: 73
